test system: MS2 coat protein; assay: apparent KD of MS2 coat protein; designed switch direction (-1 OFF switch, 1 ON switch): 1; higher = weaker reporter binding; conditions: input ligand: FMN 200 uM
Label y when apparent KD of MS2 coat protein is at or above 100 nM; otherwise label n.

Below, 3 sequences whose answers are already recorded.
[[record]]
sequence_code = "UUUAGAUCGCGAGGAUAUCGCGAGGAUCACCCGUGAGAAGGCGCAGAGCCGAGGAUCACCCGGCUGAUCCUGAGAAGGAGGUCU (Eterna round: R96, puzzle: Same State NG 1)"
assigned_label = "n"

[[record]]
sequence_code = "GCACUCCUAGGAGCUGCGACAUGAGGAUCACCCAUGUAAUCACAGGAUAUGCAAUUCUGAAUUUUGCAGAAGGGUGAUAGGAAA [Zausorbi] (Eterna round: R96, puzzle: Same State NG 3)"
assigned_label = "y"

[[record]]
sequence_code = "AGAGGAGGAGCAGGAUAUUCGAAGAAGGACGUGGAAGAAGGGUUCAUGCGAUGACAUGAGGAUCACCCAUGUACCGCGCGAUGA [AK SSNG1-V2-13] (Eterna round: R96, puzzle: Same State NG 1)"
assigned_label = "y"


Test whether the sequence UCUAUUGUGGUAGGAUAUCUAGGAUAUGGGAAGAGCUAAGCUUGGAAGUCACUUCACCCAGAAGGAGAGAAGGACCACACACUU [pwkr ssNG2 2FMN + F9.8] (Eterna round: R96, puzzle: Same State NG 2) records apparent KD of MS2 coat protein of 100 nM or higher. y

Assess whether reported apparent KD of MS2 coat protein for AUAAAUAACACAGGAUAUCCGCACGGGUAGUGCGGAGAAGGGUGAACGUCGGCUCUCGCCAACAUGAGGAUCACCCAUGUAAAG [Letiusle] (Eterna round: R96, puzzle: Same State NG 1) sits at 100 nM or higher. y

Kindly determine if apparent KD of MS2 coat protein recorded for AUUACUAACAUAGGAUAUCAUGCGAAAAUUGCGUGAGAAGGGUGGACACUGUCAUUCUCGGAGCACAUGAGGAUCACCCAUGUG [SameState NG1 #70] (Eterna round: R96, puzzle: Same State NG 1) is above or exactly 100 nM. n

Confirm if apparent KD of MS2 coat protein reported for the sequence GGUCGGACAUGAGGAUCACCCAUGUGGUGAGCGGAAACGCCAUAGGAUAUCUGUCCGAAAAGGUCAGAGAAGGGUGAACCGACC [Fiskers NG3ss - 68] (Eterna round: R96, puzzle: Same State NG 3) is 100 nM or above. y

Is reported apparent KD of MS2 coat protein greater than or equal to 100 nM here: AUUAUAAAUGCAGGAUAUGAUUAACAUGAGGAUCACCCAUGUGGUGUUGUGAGUAAGGAGAGUGAUCAGAAGGGCAUUUUUUUU [JMF's solution 24] (Eterna round: R96, puzzle: Same State NG 2) y

Please indicate if the recorded apparent KD of MS2 coat protein for AGCUAUUACGCAGGAUAUAGGGACAUGAGGAUCACCCAUGUGUACAUGAGUAAAUGUGAUCACGUCUAGAAGGGUGUACUAACA [SameState NG2 #37] (Eterna round: R96, puzzle: Same State NG 2) meets or exceeds 100 nM. y

Kindly determine if apparent KD of MS2 coat protein recorded for GAAUAGUUGAGAGGAUAUCUAUUAUAAAAGGAUAGAGAAGGUUUUAACAUGAGGAUCACCCAUGUAGGACUAUAUAUGUGAAUA [Parity 100 - Jieux - Same State NG 1] (Eterna round: R96, puzzle: Same State NG 1) is above or exactly 100 nM. n

# bool: apparent KD of MS2 coat protein of AUUAAUAAUCUAGGAUAUCACGUCGAUUAGACGUGAGAAGGAGAUCAUAACAUGAGGAUCACCCAUGUAUUACAUGAAGUUAAU [SSNG1/7-B2] (Eterna round: R96, puzzle: Same State NG 1) >= 100 nM n

apparent KD of MS2 coat protein >= 100 nM for ACAUGAGACUCAGGAUAUAUUGUACCUACAUGUGACAUGAGGAUCACCCAUGUGGUAAGUAUGACAUAGAAGGGAGAGAUAUGU [Equivalance 86 - Jieux - Same State NG 2] (Eterna round: R96, puzzle: Same State NG 2) ? n

Exam item: decide whether the reported apparent KD of MS2 coat protein for UUAAUUAUGUAAGGAUAUACAUGAGGAUUUCUCGUAGAAGGUACAUUACAUGAGGAUCACCCAUGUAGGUGUCCGUAGACGCCA [JL SSNG1 1.07] (Eterna round: R96, puzzle: Same State NG 1) is at least 100 nM. y

Is apparent KD of MS2 coat protein at least 100 nM? Consider AAACGGUCGCUGCGGCGGCCACAUGAGGAUCACCCAUGUACAUAGGAUAUCGCCUAAAAUACUGGCGAGAAGGGUGAUUAAAGA [Ergegeti] (Eterna round: R96, puzzle: Same State NG 3) y

These measurements were taken from the supplement of paper PMC9170038.
